assay: Inhibition of DMBA-induced preneoplastic lesion formation in a BALB/c mouse mammary organ culture at 2 uM pretreated for 10 days before DMBA-challenge measured after 14 days; format: functional; settings: Mammary gland
So basically: inhibition at 2 µM at 30% or higher? That is Met. Lower than 30%? That is Not met.

compound: COC(=O)[C@]12OC[C@]34[C@H]([C@@H](O)[C@@H]1O)[C@@]1(C)CC(=O)C(O)=C(C)[C@@H]1C[C@H]3OC(=O)[C@H](OC(=O)C=C(C)C)[C@@H]24 [BRUSATOL]
labelClass: Met

compound: CC1=CC(=O)[C@@H](O)[C@@]2(C)[C@H]1CC[C@@]13CO[C@]4(C)[C@@H]1C(=O)O[C@H]4[C@H](O)[C@@H]32 [SAMADERIN B]
labelClass: Not met

compound: CCC(CC)(CO)C(=O)O[C@H]1C(=O)O[C@@H]2C[C@H]3C(C)=CC(=O)[C@@H](O)[C@]3(C)[C@H]3[C@]4(O)OC[C@]32[C@@H]1[C@@H](C)[C@H]4O
labelClass: Met

compound: CC[C@](O)(CC(=O)O[C@H]1C(=O)O[C@@H]2C[C@H]3C(C)=CC(=O)[C@@H](O)[C@]3(C)[C@H]3[C@]4(O)OC[C@]32[C@@H]1[C@@H](C)[C@H]4O)C(C)C
labelClass: Met

compound: CC1=CC(=O)[C@@H](O)[C@]2(C)[C@H]3C4(O)OC[C@@]35[C@@H](C[C@@H]12)OC(=O)C[C@H]5[C@@H](C)[C@H]4O (single isomer, unassigned) [CHAPARRINONE]
labelClass: Not met

compound: CC1=CC(=O)[C@@H](O)[C@]2(C)[C@H]3[C@]4(O)OC[C@]35[C@H]([C@@H](C)[C@H]4O)[C@@H](OC(=O)CC(C(C)C)C(C)C)C(=O)O[C@@H]5C[C@@H]12
labelClass: Met

compound: COC(=O)[C@@]12OC[C@]34[C@H]([C@@H](O)[C@@H]1O)[C@@]1(C)CC(=O)C(O)=C(C)[C@@H]1C[C@H]3OC(=O)[C@H](OC(=O)/C=C(\C)C(C)C)[C@@H]24 [BRUCEANTIN]
labelClass: Met

compound: CCCC(=O)O[C@H]1C(=O)O[C@@H]2C[C@H]3C(C)=CC(=O)[C@@H](O)[C@]3(C)[C@H]3[C@]4(O)OC[C@]32[C@@H]1[C@@H](C)[C@H]4O
labelClass: Met

compound: CC1=CC(=O)[C@@H](O)[C@]2(C)[C@H]3[C@]4(O)OC[C@]35[C@H]([C@@H](C)[C@H]4O)[C@@H](OC(=O)CC3(O)CCC3)C(=O)O[C@@H]5C[C@@H]12
labelClass: Met

* * *

test: Toxicity in BALB/c mouse mammary organ culture assessed as morphological changes in mammary gland at 2 uM after 10 days; format: tissue-based; details: ex_vivo, 240 h
parameterMeasured: Activity

compound: CCC(CC)(CO)C(=O)O[C@H]1C(=O)O[C@@H]2C[C@H]3C(C)=CC(=O)[C@@H](O)[C@]3(C)[C@H]3[C@]4(O)OC[C@]32[C@@H]1[C@@H](C)[C@H]4O
parameterMeasured: Activity
recordedMeasurement: Non-toxic
//
compound: CC1=CC(=O)[C@@H](O)[C@@]2(C)[C@H]1CC[C@@]13CO[C@]4(C)[C@@H]1C(=O)O[C@H]4[C@H](O)[C@@H]32
parameterMeasured: Activity
recordedMeasurement: Non-toxic
//
compound: CC1=CC(=O)[C@@H](O)[C@]2(C)[C@H]3C4(O)OC[C@@]35[C@@H](C[C@@H]12)OC(=O)C[C@H]5[C@@H](C)[C@H]4O (single isomer, unassigned)
parameterMeasured: Activity
recordedMeasurement: Non-toxic

* * *

system: HL-60; assay: Induction of cell differentiation in human HL60 cells assessed as superoxide anion production after 4 days by NBT reduction assay; type: functional, cell-based; settings: HL-60, 96 h
pEC50: −log10 of the molar value.
parameterMeasured: pEC50

compound: CC1=CC(=O)[C@@H](O)[C@]2(C)[C@H]3[C@]4(O)OC[C@]35[C@H]([C@@H](C)[C@H]4O)[C@@H](OC(=O)CC(O)(C(C)C)C(C)C)C(=O)O[C@@H]5C[C@@H]12
censorSymbol: =
recordedMeasurement: 8.05

compound: CC1=CC(=O)[C@@H](O)[C@]2(C)[C@H]3[C@]4(O)OC[C@]35[C@H]([C@@H](C)[C@H]4O)[C@@H](OC(=O)CC3(O)CCCC3)C(=O)O[C@@H]5C[C@@H]12
censorSymbol: =
recordedMeasurement: 6.89

compound: CC1=CC(=O)[C@@H](O)[C@]2(C)[C@H]3[C@]4(O)OC[C@]35[C@H]([C@@H](C)[C@H]4O)[C@@H](OC(=O)CN(C)C)C(=O)O[C@@H]5C[C@@H]12
censorSymbol: =
recordedMeasurement: 6.30

compound: CC1=CC(=O)[C@@H](O)[C@]2(C)[C@H]3[C@]4(O)OC[C@]35[C@H]([C@@H](C)[C@H]4O)[C@@H](OC(=O)C(C)(C)C(=O)O)C(=O)O[C@@H]5C[C@@H]12
censorSymbol: <
recordedMeasurement: 5.15

compound: CC1=CC(=O)[C@@H](O)[C@]2(C)[C@H]3[C@@H](O)[C@H](O)[C@@]4(C)OC[C@@]35[C@@H](C[C@@H]12)OC(=O)[C@H](O)[C@@H]45 [YADANZIOLIDE C]
censorSymbol: =
recordedMeasurement: 5.00

* * *

tested on: HL-60; test: Induction of cell differentiation in human HL60 cells assessed as superoxide anion production after 4 days by NBT reduction assay; type: functional, cell-based; details: HL-60, 96 h
pEC50: −log10 of the molar value.
Our labelling divides records by pEC50 into ranges: low = under 6, intermediate = from 6 up to 7, high = 7 and over

compound: CC1=CC(=O)[C@@H](O)[C@]2(C)[C@H]3[C@]4(O)OC[C@]35[C@H]([C@@H](C)[C@H]4O)[C@@H](OC(=O)C(=O)O[C@H]3C(=O)O[C@@H]4C[C@H]6C(C)=CC(=O)[C@@H](O)[C@]6(C)[C@H]6[C@]7(O)OC[C@]64[C@@H]3[C@@H](C)[C@H]7O)C(=O)O[C@@H]5C[C@@H]12.O=C(O)C(=O)O
systemUnderTest: HL-60
labelClass: low
--
compound: CC1=CC(=O)[C@@H](O)[C@]2(C)[C@H]3C4(O)OC[C@@]35[C@@H](C[C@@H]12)OC(=O)C[C@H]5[C@@H](C)[C@H]4O (single isomer, unassigned)
systemUnderTest: HL-60
labelClass: low
--
compound: CC1=CC(=O)[C@@H](O)[C@]2(C)[C@H]3[C@]4(O)OC[C@]35[C@H]([C@@H](C)[C@H]4O)[C@@H](OC(=O)C3(CO)CC3)C(=O)O[C@@H]5C[C@@H]12
systemUnderTest: HL-60
labelClass: low
--
compound: COC(=O)[C@@]12OC[C@]34[C@H]([C@@H](O)[C@@H]1O)[C@@]1(C)CC(=O)C(O)=C(C)[C@@H]1C[C@H]3OC(=O)[C@H](OC(=O)/C=C(\C)C(C)C)[C@@H]24 [BRUCEANTIN]
systemUnderTest: HL-60
labelClass: high
--
compound: CCCC(=O)O[C@H]1C(=O)O[C@@H]2C[C@H]3C(C)=CC(=O)[C@@H](O)[C@]3(C)[C@H]3[C@]4(O)OC[C@]32[C@@H]1[C@@H](C)[C@H]4O
systemUnderTest: HL-60
labelClass: low
--
compound: CC1=CC(=O)[C@@H](O)[C@]2(C)[C@H]3[C@]4(O)OC[C@]35[C@H]([C@@H](C)[C@H]4O)[C@@H](OC(=O)CC3(O)C(C)(C)CCC3(C)C)C(=O)O[C@@H]5C[C@@H]12
systemUnderTest: HL-60
labelClass: high
--
compound: CC(=O)O[C@H]1C(=O)O[C@@H]2C[C@H]3C(C)=CC(=O)[C@@H](O)[C@]3(C)[C@H]3[C@]4(O)OC[C@]32[C@@H]1[C@@H](C)[C@H]4O
systemUnderTest: HL-60
labelClass: intermediate
--
compound: CC[C@](O)(CC(=O)O[C@H]1C(=O)O[C@@H]2C[C@H]3C(C)=CC(=O)[C@@H](O)[C@]3(C)[C@H]3[C@]4(O)OC[C@]32[C@@H]1[C@@H](C)[C@H]4O)C(C)C
systemUnderTest: HL-60
labelClass: high
--
compound: CC1=CC(=O)[C@@H](O)[C@]2(C)[C@H]3[C@]4(O)OC[C@]35[C@H]([C@@H](C)[C@H]4O)[C@@H](OC(=O)CC(C)C)C(=O)O[C@@H]5C[C@@H]12
systemUnderTest: HL-60
labelClass: low
--
compound: CC1=CC(=O)[C@@H](O)[C@]2(C)[C@H]3[C@]4(O)OC[C@]35[C@H]([C@@H](C)[C@H]4O)[C@@H](OC(=O)CC(C)(C)O)C(=O)O[C@@H]5C[C@@H]12
systemUnderTest: HL-60
labelClass: intermediate
--
compound: CC1=CC(=O)[C@@H](O)[C@]2(C)[C@H]3[C@]4(O)OC[C@]35[C@H]([C@@H](C)[C@H]4O)[C@@H](OC(=O)CC(C)(C)OP(=O)(O)O)C(=O)O[C@@H]5C[C@@H]12
systemUnderTest: HL-60
labelClass: low
--
compound: CC1=CC(=O)[C@@H](O)[C@]2(C)[C@H]3[C@]4(O)OC[C@]35[C@H]([C@@H](C)[C@H]4O)[C@@H](OC(=O)[C@H](C)CO)C(=O)O[C@@H]5C[C@@H]12
systemUnderTest: HL-60
labelClass: low
--
compound: CC1=CC(=O)[C@@H](O)[C@]2(C)[C@H]3[C@]4(O)OC[C@]35[C@H]([C@@H](C)[C@H]4O)[C@@H](OC(=O)C[C@]3(O)CC(C)CCC3C(C)C)C(=O)O[C@@H]5C[C@@H]12 (some centres undefined)
systemUnderTest: HL-60
labelClass: intermediate
--
compound: CC1=CC(=O)[C@@H](O)[C@]2(C)[C@H]3[C@]4(O)OC[C@]35[C@H]([C@@H](C)[C@H]4O)[C@@H](OC(=O)CC(C(C)C)C(C)C)C(=O)O[C@@H]5C[C@@H]12
systemUnderTest: HL-60
labelClass: high
